Biological target: Tyrosine-protein phosphatase non-receptor type 1 (Homo sapiens)
Sequence (P18031 whole entry): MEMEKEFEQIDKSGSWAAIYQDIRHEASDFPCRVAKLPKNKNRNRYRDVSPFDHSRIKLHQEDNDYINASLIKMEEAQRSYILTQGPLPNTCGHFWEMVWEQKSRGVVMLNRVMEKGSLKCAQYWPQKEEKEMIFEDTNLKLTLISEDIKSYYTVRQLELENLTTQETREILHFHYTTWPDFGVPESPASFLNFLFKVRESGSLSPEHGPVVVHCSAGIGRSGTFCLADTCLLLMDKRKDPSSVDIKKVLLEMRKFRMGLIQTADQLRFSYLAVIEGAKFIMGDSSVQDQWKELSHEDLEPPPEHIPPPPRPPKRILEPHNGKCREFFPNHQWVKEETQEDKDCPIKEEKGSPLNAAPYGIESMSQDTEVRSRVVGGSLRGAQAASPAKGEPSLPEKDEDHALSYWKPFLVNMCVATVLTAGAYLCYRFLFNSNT
IC50 for Tyrosine-protein phosphatase non-receptor type 1 (Homo sapiens), merged from several publications.
recorded-metric: IC50 (µM)

{"columns": ["compound", "meas-value"],
 "data": [
  ["COc1c([C@H]2c3c(cc(O)c(O)c3OC)C=C(C(=O)c3ccc(O)cc3)[C@H]2C(=O)c2ccc(O)cc2)ccc(O)c1O (relative stereo)", 36.2]
]}

A = C=C1CCC[C@H]2[C@](C)(Cc3c(O)c(O)cc4nc(C)oc34)[C@@H](C)CC[C@]12C
B = CCCCCc1c2c(cc(O)c1C(=O)O)OC(=O)c1c(cc(OC)cc1C(=O)CCCC)O2
Task: Could you tell me which of these two has the smaller IC50 figure? First: A Second: B Respond using the label that marks the chosen record.
Result: B
(B: 0.8 µM, A: 4.8 µM)

----------
Compiled notes: published IC50 values involving Tyrosine-protein phosphatase non-receptor type 1 (Homo sapiens).
Target: Tyrosine-protein phosphatase non-receptor type 1 (Homo sapiens)
Sequence (P18031 whole entry): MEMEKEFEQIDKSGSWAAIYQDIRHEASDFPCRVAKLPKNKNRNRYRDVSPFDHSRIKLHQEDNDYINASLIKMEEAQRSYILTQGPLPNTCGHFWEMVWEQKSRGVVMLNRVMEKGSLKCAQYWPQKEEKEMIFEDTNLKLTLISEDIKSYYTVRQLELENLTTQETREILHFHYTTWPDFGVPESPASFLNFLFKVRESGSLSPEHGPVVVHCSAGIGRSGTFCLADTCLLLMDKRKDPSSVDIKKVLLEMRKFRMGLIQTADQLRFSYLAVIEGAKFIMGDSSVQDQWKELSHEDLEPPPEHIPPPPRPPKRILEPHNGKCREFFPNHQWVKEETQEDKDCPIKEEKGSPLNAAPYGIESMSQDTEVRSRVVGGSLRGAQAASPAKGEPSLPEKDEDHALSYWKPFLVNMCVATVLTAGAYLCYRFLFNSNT
recorded-metric: IC50 (µM)

Observe how each entry below is paired with its result.
{"columns": ["compound", "tested-on", "recorded-metric", "meas-value"],
 "data": [
  ["CC(=O)O[C@H]1[C@@H]2C(=O)c3c(C)cc(O)c4c3[C@@]1(COC4=O)C1=C2c2c(C)cc(O)c3c(=O)n(-c4ccc(Br)cc4)cc(c23)C1=O", "Tyrosine-protein phosphatase non-receptor type 1 (Homo sapiens)", "IC50", 9.3],
  ["O=C(O)COc1ccc(S(=O)(=O)N(Cc2ccc(OC(F)(F)C(=O)O)cc2)Cc2ccc(-c3csnn3)cc2)cc1", "Tyrosine-protein phosphatase non-receptor type 1 (Homo sapiens)", "IC50", 29.1],
  ["COc1cc(CN(Cc2ccc(-c3csnn3)cc2)S(=O)(=O)c2ccccc2)ccc1OC(F)(F)C(=O)O", "Tyrosine-protein phosphatase non-receptor type 1 (Homo sapiens)", "IC50", 237],
  ["COc1cc(O)c(CC=C(C)C)cc1-c1cc2ccc(O)cc2o1", "Tyrosine-protein phosphatase non-receptor type 1 (Homo sapiens)", "IC50", 17.5],
  ["Oc1cc(-c2ncc(-c3ccccc3)o2)cc(Br)c1O", "Tyrosine-protein phosphatase non-receptor type 1 (Homo sapiens)", "IC50", 6.68],
  ["C[C@]12CCC[C@@]3(CO[C@@H]1O)[C@H]2CC[C@]1(C)[C@@H]3CC[C@]2(C)Oc3ccc(O)cc3C[C@@H]12", "Tyrosine-protein phosphatase non-receptor type 1 (Homo sapiens)", "IC50", 11.9],
  ["CCCCCCCC(C)CCC/C(O)=C1\\C(=O)C(C)N(C)C1=O (centres undefined)", "Tyrosine-protein phosphatase non-receptor type 1 (Homo sapiens)", "IC50", 14.6],
  ["Nc1cc2nsnc2cc1C#Cc1ccccc1", "Tyrosine-protein phosphatase non-receptor type 1 (Homo sapiens)", "IC50", 33.6],
  ["C[C@H]1CN=C(C(Cc2ccc(C3CC(=O)NS3(=O)=O)cc2)NS(=O)(=O)c2cccc(C(F)(F)F)c2)N1 (some centres undefined)", "Tyrosine-protein phosphatase non-receptor type 1 (Homo sapiens)", "IC50", 0.81],
  ["CC(C)=CCc1c(O)ccc(-c2cc3ccc(O)cc3o2)c1O", "Tyrosine-protein phosphatase non-receptor type 1 (Homo sapiens)", "IC50", 13.6]
]}

a = Cc1ccc(C(=O)Nc2nnc(-c3ccc(Oc4ccc([N+](=O)[O-])cc4[N+](=O)[O-])cc3)s2)cc1
b = CCCCCc1c2c(cc(OC)c1C(=O)OC)OC(=O)c1c(cc(OC)cc1C(=O)CCCC)O2
Task: Which record would sort first by descending IC50, a or b ? The response must carry the label of the picked entry.
Result: a

----------
Molecular target: UniProt P18031
Sequence (P18031 whole entry): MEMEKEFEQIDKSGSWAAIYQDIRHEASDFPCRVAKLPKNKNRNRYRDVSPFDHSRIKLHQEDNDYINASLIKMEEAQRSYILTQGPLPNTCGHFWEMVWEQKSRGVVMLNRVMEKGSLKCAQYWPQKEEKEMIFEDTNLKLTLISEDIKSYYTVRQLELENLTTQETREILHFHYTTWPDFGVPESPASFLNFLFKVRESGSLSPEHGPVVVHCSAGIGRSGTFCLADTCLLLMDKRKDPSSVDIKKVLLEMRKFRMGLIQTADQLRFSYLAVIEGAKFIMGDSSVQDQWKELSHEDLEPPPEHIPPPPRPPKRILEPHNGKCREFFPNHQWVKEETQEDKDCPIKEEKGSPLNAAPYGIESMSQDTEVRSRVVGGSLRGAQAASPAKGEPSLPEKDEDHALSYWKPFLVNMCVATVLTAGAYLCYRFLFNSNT
Assembled from different publications: IC50 for UniProt P18031.
recorded-metric: IC50 (µM)

{"columns": ["molecule", "recorded-metric", "meas-value"],
 "data": [
  ["CNC(=O)[C@@H]1Cc2ccc(NS(=O)(=O)O)cc2CN1C(=O)CCc1cccc(O)c1", "IC50", 82.1],
  ["O=S(=O)(Nc1ccc(Oc2ccc(Oc3ccc(NS(=O)(=O)C(F)(F)F)cc3)cc2)cc1)C(F)(F)F", "IC50", 2.5],
  ["Cc1oc(-c2ccc(C(F)(F)F)cc2)nc1-c1ccc2c(Br)c(OC(Cc3ccccc3)C(=O)O)ccc2c1 (configuration not stated)", "IC50", 0.191],
  ["CC1(C)C=Cc2c(ccc(C(=O)/C=C/c3ccc(O)cc3)c2O)O1", "IC50", 74.1],
  ["O=C(Nc1ccc(-c2ccc(NC(=O)c3ccccc3)cn2)cc1)c1ccccc1", "IC50", 5.37]
]}

1 = COC(=O)c1ccc(NC(=O)c2csc([C@H](Cc3ccc(OCc4ccccc4)cc3)NC(=O)C3CCCCC3)n2)cc1
2 = CNc1nc(N)nc2nc(-c3c(Oc4ccccc4)cccc3C(F)(F)F)ccc12
3 = O=C(COc1ccc(Cl)cc1)NC(Cc1ccc2cc(OCc3ccccc3F)ccc2c1)C(=O)O (racemic)
4 = CC(C)(C)N.CCCCCC(=O)N1Cc2cc(OCCc3nc(/C=C/CCC(C)C)oc3C)ccc2C[C@H]1C(=O)O
Task: Sort low-to-high on IC50, please. Please list the labels in the order you were asked to rank them.
Result: 2, 4, 1, 3
(2: 0.2 µM, 4: 0.94 µM, 1: 4.42 µM, 3: 10.8 µM)

----------
Molecular target: UniProtKB P18031
Sequence (P18031 whole entry): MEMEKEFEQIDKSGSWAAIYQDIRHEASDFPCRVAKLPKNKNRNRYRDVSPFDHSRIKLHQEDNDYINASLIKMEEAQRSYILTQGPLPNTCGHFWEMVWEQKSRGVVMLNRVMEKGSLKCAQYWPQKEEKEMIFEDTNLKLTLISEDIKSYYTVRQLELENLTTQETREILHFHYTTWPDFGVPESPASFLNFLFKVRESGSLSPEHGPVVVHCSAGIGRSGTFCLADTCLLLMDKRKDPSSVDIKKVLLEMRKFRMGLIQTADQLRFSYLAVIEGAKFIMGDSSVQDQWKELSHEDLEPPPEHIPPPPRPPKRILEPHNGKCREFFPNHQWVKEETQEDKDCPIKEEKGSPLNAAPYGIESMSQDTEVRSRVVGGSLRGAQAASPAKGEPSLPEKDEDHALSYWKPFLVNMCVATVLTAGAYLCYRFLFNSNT
A compilation of IC50 values for UniProtKB P18031 from the published literature.
recorded-metric: IC50 (µM)

// solved cases for IC50 follow
{"columns": ["compound", "tested-on", "recorded-metric", "meas-value"],
 "data": [
  ["COc1cc(/C=C/c2cc(Br)c(O)c(C(=O)O)c2)ccc1/C=C/c1cc(Br)c(O)c(C(=O)O)c1", "UniProtKB P18031", "IC50", 6],
  ["CCOC(=O)/C(C)=C/C(C)=C\\c1csc([C@H](Cc2ccc(OCc3ccccc3)cc2)NC(=O)C2CCCCC2)n1", "UniProtKB P18031", "IC50", 23.9],
  ["CC(C)[C@@H]1CC[C@@H](C)[C@]23C[C@@H]4[C@H](c5ccccc5)c5c(O)c(C=O)c(O)c(C=O)c5O[C@]4(C)[C@@H](O)[C@]12O3", "UniProtKB P18031", "IC50", 10.7]
]}

P = Cc1cc(C[C@H](NS(=O)(=O)c2cccc(Cl)c2)c2nc3ccccc3[nH]2)ccc1[C@@H]1CC(=O)[N-]S1(=O)=O.[Na+]
Q = CCCCCc1c(Oc2cc(OC)cc3c2C(=O)OC3(O)CCCC)c(O)cc(O)c1C(=O)O (stereo not drawn)
R = COC(=O)c1cccc(NC(=O)c2csc([C@H](Cc3ccc(OCc4ccccc4)cc3)NC(=O)C3CCCCC3)n2)c1
S = O=C1CN(c2csc(-c3ccccc3)c2Br)S(=O)(=O)N1
T = CC1(C)CC[C@]2(C(=O)O)CC[C@]3(C)C(=CC[C@@H]4[C@@]5(C)CC[C@H](OC(=O)c6ccccc6)C(C)(C)[C@@H]5CC[C@]43C)[C@@H]2C1
Task: Could you please sort these 5 entries by IC50 from high to low? Answer format: the labels, ordered as requested.
Result: S, T, R, Q, P
